B1: library; a variant is named by its letters at N, in order (parent)
chain: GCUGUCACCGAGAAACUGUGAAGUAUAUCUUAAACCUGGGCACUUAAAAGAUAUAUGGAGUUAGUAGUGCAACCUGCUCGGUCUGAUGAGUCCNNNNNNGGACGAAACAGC

Variants of: B1
Experiment: normalized RNA/DNA level without ligand (relative to sTRSVctl = 100) (log10 (% of sTRSVctl)); HEK293T; ligand: cyclic di-GMP (c-di-GMP-II aptamer); higher = less ribozyme self-cleavage, higher mRNA level
Conditions: reporter: mCherry (pCS4076), ligand present: no
normalized RNA/DNA level without ligand (log10): recorded values
experimental.endpoint: normalized RNA/DNA level without ligand (log10)

- UACUGC: 1.71
- UUACGU: 1.66
- AGGUGC: 1.75
- UAGGAU: 1.58
- CCCAUG: 1.53
